Reference source for all entries: patent US20050101595A1

molecular target: CDK2/Cyclin A (Homo sapiens, UniProt P24941); test: Inhibition of CDK2/Cyclin A Retinoblastoma Kinase Activity; type: biochemical; settings: 0.03 μM compound; Table 4
Attribute Measured: CDK2 % Inhibition at 0.03 μM (%)

I: Nc1nc(NC2CCN(C(=O)c3cccnc3)CC2)sc1C(=O)c1c(F)cccc1F
II: Nc1nc(NC2CCN(C(=O)c3ccc4c(c3)C(=O)OC4=O)CC2)sc1C(=O)c1c(F)cccc1F
Q: Hey, which is lower on measured CDK2 % Inhibition at 0.03 μM, I or II ? Reply with the label of the item you choose.
Ans: II
(II: 7%, I: 20%)

a: Nc1nc(NC2CCN(C(=O)c3cccc(Cl)c3)CC2)sc1C(=O)c1c(F)cccc1F
b: COc1cccc(CC(=O)N2CCC(Nc3nc(N)c(C(=O)c4c(F)cccc4F)s3)CC2)c1
c: CC(=O)OC(C(=O)N1CCC(Nc2nc(N)c(C(=O)c3c(F)cccc3F)s2)CC1)c1ccccc1 (stereo not shown)
d: Nc1nc(NC2CCN(C(=O)c3cccc4ccccc34)CC2)sc1C(=O)c1c(F)cccc1F
Q: Hi! Can you put these in order of CDK2 % Inhibition at 0.03 μM, lowest number first? Give your ranking as a list of the labels in the requested order.
Ans: c, a, d, b

###

system: HCT-116 cell line; test: Inhibition of cell growth, tetrazolium salt (MTT) assay; format: cell-based; details: Homo sapiens, HCT-116, 120 h, first HCT-116 column (c4); MTT, three to five days; read-out: HCT-116 IC50
Where a name gives a salt, the structure may show the parent alone.
Attribute Measured: IC50 (nM)

1) CC1(C)CN(c2ccc(S(=O)(=O)N3CCC(Nc4nc(N)c(C(=O)c5c(F)cccc5F)s4)CC3)cc2)CCN1    110
2) C=C(C)CN(C)CCCS(=O)(=O)N1CCC(Nc2nc(N)c(C(=O)c3c(F)cccc3F)s2)CC1    90

P: Nc1nc(NC2CCN(S(=O)(=O)c3ccc(OCCNC4CC4)nc3)CC2)sc1C(=O)c1c(F)cccc1F [Example H21, Hydrochloride Salt]
Q: Nc1nc(NC2CCN(S(=O)(=O)c3ccc(O)nc3)CC2)sc1C(=O)c1c(F)cccc1F [Example H1, Trifluoroacetic Acid Salt]
Q: Which one would you say has the larger IC50 value: P , or Q ? Let me know the label of the one you choose.
Ans: Q

a: Nc1nc(NC2CCN(S(=O)(=O)c3ccc(-c4ncc[nH]4)cc3)CC2)sc1C(=O)c1c(F)cccc1F
b: CC1(C)CN(c2ccc(S(=O)(=O)N3CCC(Nc4nc(N)c(C(=O)c5c(F)cccc5F)s4)CC3)cn2)CCN1
Q: Of a and b , which one carries the higher reported IC50? // output: label of the selected item
Ans: a

A: Nc1nc(NC2CCN(S(=O)(=O)c3cnc(OCCN4CCOCC4)nc3)CC2)sc1C(=O)c1c(F)cccc1F [Example H22, Trifluoroacetic Acid Salt]
B: Nc1nc(NC2CCN(C(=S)Oc3ccc(F)cc3)CC2)sc1C(=O)c1c(F)cccc1F
Q: Of A and B , which carries the smaller reported IC50 figure? // output: label of the selected item
Ans: A

###

test system: HCT-116 cell line; assay: Inhibition of cell growth, tetrazolium salt (MTT) assay; format: cell-based; conditions: Homo sapiens, HCT-116, 120 h, first HCT-116 column (c4); MTT, three to five days; read-out: HCT-116 IC50
Counter-ions that a name gives are not always drawn.
Attribute Measured: IC50 (nM)

Reference set, count: 5
1. CN1CC[C@H](c2ccc(S(=O)(=O)N3CCC(Nc4nc(N)c(C(=O)c5c(F)cccc5F)s4)CC3)cc2)C1    93
2. Nc1nc(NC2CCN(S(=O)(=O)CCCN3CCC4CCCCC4C3)CC2)sc1C(=O)c1c(F)cccc1F (mixture of isomers)    190
3. Nc1nc(NC2CCN(S(=O)(=O)c3ccc(N4CCC[C@@H]4CO)nc3)CC2)sc1C(=O)c1c(F)cccc1F [Example G13, Trifluoroacetic Acid Salt]    170
4. CN(C)CCN(C)c1ncc(S(=O)(=O)N2CCC(Nc3nc(N)c(C(=O)c4c(F)cccc4F)s3)CC2)cc1Br    290
5. Nc1nc(NC2CCN(C(=O)/C=C/c3ccncc3)CC2)sc1C(=O)c1c(F)cccc1F    1900

A: Nc1nc(NC2CCN(S(=O)(=O)Nc3ccccc3)CC2)sc1C(=O)c1c(F)cccc1F [Example E2]
B: CN(C)CCN(C)c1ccc(C(=O)N2CCC(Nc3nc(N)c(C(=O)c4c(F)cccc4F)s3)CC2)cn1 [Example G32, Trifluoroacetic Acid Salt]
Q: Could you kindly indicate whether A or B has the higher IC50 value? State your choice using its label.
Ans: B
(B: 4700 nM, A: 680 nM)
